Each recorded value in this set is attributed to patent US10072025B2.

- TESTED TARGET: JAK2 (Homo sapiens (Human), UniProt O60674)
- Sequence (O60674 849-1124): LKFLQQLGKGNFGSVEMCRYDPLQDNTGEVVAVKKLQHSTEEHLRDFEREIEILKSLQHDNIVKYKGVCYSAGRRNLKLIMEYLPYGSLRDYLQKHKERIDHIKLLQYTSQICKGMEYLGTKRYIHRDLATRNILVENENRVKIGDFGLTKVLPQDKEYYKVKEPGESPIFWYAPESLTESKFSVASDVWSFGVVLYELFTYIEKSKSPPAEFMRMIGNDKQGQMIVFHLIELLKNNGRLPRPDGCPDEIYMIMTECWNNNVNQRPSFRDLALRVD
- TEST SUMMARY: Jak Biochemical HTRF Assay (JAK2)
- EXPERIMENTAL PARAMETERS: recombinant purified GST-tagged catalytic domain, [ATP] 8.5 μM, [E] 0.052 nM
MEASURED QUANTITY: IC50 (nM)

# count of solved cases: 4
COMPOUND	TESTED TARGET	MEASURED QUANTITY	UNIT OF MEASUREMENT	REPORTED MEASUREMENT
CCC1(n2nc(Nc3ccc(C(=O)N4CCCOC(C)C4)c(C)c3)c3c(=O)[nH]ccc32)CCN(C(=O)OC(C)(C)C)CC1 (single isomer, unassigned) [Example 3-23]	JAK2 (Homo sapiens (Human), UniProt O60674)	IC50	nM	0.7
CCC1(n2nc(Nc3ccc(C(=O)N4CCOCC(C)C4)c(C)c3)c3c(=O)[nH]ccc32)CCN(C(=O)OC(C)(C)C)CC1 (single isomer, unassigned) [Example 3-20]	JAK2 (Homo sapiens (Human), UniProt O60674)	IC50	nM	0.53
CCC1(n2nc(Nc3ccc(C(=O)N4CCOC[C@H]4C)c(C)c3)c3c(=O)[nH]ccc32)CCN(C(=O)OC(C)(C)C)CC1	JAK2 (Homo sapiens (Human), UniProt O60674)	IC50	nM	0.51
CCC1(n2nc(Nc3ccc(C(=O)N4CCOCC4)c(C)c3)c3c(=O)[nH]ccc32)CCN(C(=O)OC(C)(C)C)CC1	JAK2 (Homo sapiens (Human), UniProt O60674)	IC50	nM	0.47

[a] CCC1(n2nc(Nc3ccc(C(=O)N4CCCOC(C)C4)c(C)c3)c3c(=O)[nH]ccc32)CCN(C(=O)OC(C)(C)C)CC1 (single isomer, unassigned) [Example 3-22]
[b] CCC1(n2nc(Nc3ccc(C(=O)N4CCO[C@H](C)C4)c(C)c3)c3c(=O)[nH]ccc32)CCN(C(=O)OC(C)(C)C)CC1
[c] CCC1(n2nc(Nc3ccc(S(=O)(=O)N(C)C)cc3)c3c(=O)[nH]ccc32)CCN(C(=O)OC(C)(C)C)CC1
[d] CCC1(n2nc(Nc3ccc(C(=O)N4CCC(F)(F)CC4)c(C)c3)c3c(=O)[nH]ccc32)CCN(C(=O)OC(C)(C)C)CC1
(Q) Rank items: key IC50, increasing. The response must list the labels following the requested ordering.
(A) c, b, a, d
(c: 0.4 nM, b: 0.6 nM, a: 0.87 nM, d: 1.44 nM)

[P] CCC1(n2nc(Nc3ccc(C(=O)N4CCSCC4)c(C)c3)c3c(=O)[nH]ccc32)CCN(C(=O)OC(C)(C)C)CC1
[Q] CCC1(n2nc(Nc3ccc4c(c3)CN(C3(C)CCC(F)(F)CC3)C4=O)c3c(=O)[nH]ccc32)CCN(C(=O)OC(C)(C)C)CC1
(Q) Would you kindly point out which of P and Q has the smaller IC50 figure? Give the label under which the chosen entry appears.
(A) P
(P: 0.93 nM, Q: 3.16 nM)

---

- TESTED TARGET: JAK1 (Homo sapiens (Human), UniProt P23458)
- Sequence (P23458 875-1153): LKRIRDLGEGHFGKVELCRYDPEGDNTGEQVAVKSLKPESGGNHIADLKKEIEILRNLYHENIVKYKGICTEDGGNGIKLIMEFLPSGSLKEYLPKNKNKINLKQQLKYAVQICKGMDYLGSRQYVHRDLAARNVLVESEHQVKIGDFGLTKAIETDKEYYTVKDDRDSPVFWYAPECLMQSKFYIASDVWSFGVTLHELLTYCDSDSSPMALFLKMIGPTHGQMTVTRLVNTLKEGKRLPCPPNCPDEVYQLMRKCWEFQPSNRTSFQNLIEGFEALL
- TEST SUMMARY: Jak Biochemical HTRF Assay (JAK1)
- EXPERIMENTAL PARAMETERS: recombinant purified GST-tagged catalytic domain; HTRF; [ATP] 31.8 μM; [E] 1.405 nM
- Method: Jak Biochemical HTRF Assay Protocol The ability of compounds to inhibit the activity of JAK1, JAK2, JAK3, and Tyk2 was measured using a recombinant purified GST-tagged catalytic domain for each enzyme (Invitrogen JAK1 #M4290, JAK2 #M4290, JAK3 #M4290, Tyk2 #M4290) in an HTRF format biochemical assay. […] Plates were shaken and centrifuged and then incubated 60 minutes at room temperature and then read on a Perkin Elmer Envision (Xex=337 nm, λem=665 and 615 nm, TRF delay time=20 μs). […]
MEASURED QUANTITY: IC50 (nM)

[1] CCC1(n2nc(Nc3ccc(C(=O)N4CC5(COC5)C4)c(C)c3)c3c(=O)[nH]ccc32)CCN(C(=O)OC(C)(C)C)CC1
[2] CCC1(n2nc(Nc3ccc4c(c3)CN(C3(C)CCC(F)(F)CC3)C4=O)c3c(=O)[nH]ccc32)CCN(C(=O)OC(C)(C)C)CC1
[3] CCC1(n2nc(Nc3ccc(C(=O)N4[C@H](C)COC[C@@H]4C)c(C)c3)c3c(=O)[nH]ccc32)CCN(C(=O)OC(C)(C)C)CC1
(Q) Order the 3 listed items from lowest to highest according to IC50. Give me the labels in the order the question wants.
(A) 1, 3, 2
(1: 0.3 nM, 3: 0.61 nM, 2: 3.21 nM)
